Test system: NRF2
Assay: qPCR analysis of NRF2-regulated genes
Format: cell-based, human
Settings: 2-point score
# F = Potential NRF2 Activation values compiled below
I only need the number, thanks.

smi	F = Potential NRF2 Activation
NS(=O)(=O)c1ccc(NC(=O)c2ccc([N+](=O)[O-])o2)cc1	2

Lab note: `O=C(NCc1cccnc1)/C(=C\c1cccc(Oc2ccccc2)c1)S(=O)(=O)c1ccccc1` gave F = Potential NRF2 Activation of 0

Lab note: `COc1cccc(/C=C2\CN(C)C/C(=C\c3cccc(OC)c3OC)C2=O)c1OC` gave F = Potential NRF2 Activation of 0

Lab note: `COc1ccc(/C=C2\SC(=N)N(c3nccs3)C2=O)cc1` gave F = Potential NRF2 Activation of 0

Lab note: `O=C(NCc1cccnc1)/C(=C/c1ccc(-c2ccc(Cl)cc2)o1)S(=O)(=O)c1ccccc1` gave F = Potential NRF2 Activation of 2

Lab note: `O=C(Nc1cccc(C(F)(F)F)c1)c1ccc([N+](=O)[O-])o1` gave F = Potential NRF2 Activation of 0

====

System: NRF2
Assay: qPCR analysis of NRF2-regulated genes
Assay type: cell-based, human
Details: Homo sapiens; 10 μM, 24 hrs, WI-38 cells, qPCR, normalized to B2M, n = 4; read-out: GSTM1 expression, normalized fold change (NRF2-regulated gene)
# fold induction at 10 µM values compiled below

smi	target desc	fold induction at 10 µM
Cc1cc(C)c(C(=O)/C=C/c2ccccc2F)c(O)n1	NRF2	1.52
O=C(Nc1cc(C(F)(F)F)ccc1Cl)c1ccc([N+](=O)[O-])o1	NRF2	2

Lab note: `NS(=O)(=O)c1ccc(NC(=O)c2ccc([N+](=O)[O-])o2)cc1` gave fold induction at 10 µM of 1.45

Lab note: `COc1ccc(C(=O)/C=C/c2ccc(F)cc2)c(OC)c1` gave fold induction at 10 µM of 1.24

Lab note: `O=C(NCc1cccnc1)/C(=C/c1ccc(-c2ccc(Cl)cc2)o1)S(=O)(=O)c1ccccc1` gave fold induction at 10 µM of 0.78

Lab note: `O=C(/C(=C/c1ccc(Cl)cc1)c1nc2ccccc2[nH]1)c1ccccc1` gave fold induction at 10 µM of 1.52

Lab note: `O=C(c1ccc([N+](=O)[O-])o1)N1CCc2ccccc21` gave fold induction at 10 µM of 1.31

Lab note: `O=C(Nc1cccc(C(F)(F)F)c1)c1ccc([N+](=O)[O-])o1` gave fold induction at 10 µM of 2.11

Lab note: `CCc1ccc(Oc2nc3ccccn3c(=O)c2/C=C(\C#N)C(=O)NCc2ccco2)cc1` gave fold induction at 10 µM of 1.27

====

Test system: C. elegans
Assay: C. elegans lifespan assays (liquid and plate)
Type: in vivo, Caenorhabditis elegans
Settings: Caenorhabditis elegans, Assay 5(ac); at 66 uM, 1.0 × 10^11 bacteria/ml, CF512 worms, no FuDR; read-out: Lifespan assay on plates
Consider the cut-off 10%. If the recorded ILS at 66 µM is strictly smaller, the label is 1; if not, the label is 0.

Please review the following examples before continuing.
smi	class
O=C(/C=C/c1cn(-c2ccccc2)nc1-c1cccnc1)c1ccccc1	1
O=C(Nc1ccc(Cl)c(Cl)c1)c1ccc([N+](=O)[O-])o1	1
Cc1sc2nc(SCC(=O)N3CCOCC3)nc(O)c2c1C	0

Hi there! Is ILS at 66 µM for `O=C(/C(=C/c1ccc(Cl)cc1)c1nc2ccccc2[nH]1)c1ccccc1` below 10%, do you know?
0

Hi there! Is ILS at 66 µM for `O=C(c1ccc([N+](=O)[O-])o1)N1CCc2ccccc21` below 10%, do you know?
0

Source of measurements: patent US11413278B2
